B1: IKZF1 (parent)
chain: RDPFECNMCGYHSQDRYEFSSHIT

- Variants of: B1
- Measurement Description: protein stability index of a GFP-peptide fusion (GPS, HEK-293T) (PSI 1-6); higher = more stable;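 further: lentivirally expressed fusions sorted by FACS into six bins by GFP to DsRed ratio, PSI derived from sequencing read proportions per bin multiplied by bin number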
- Condition Notes: c terminus: a fixed tail appended
I would appreciate it if you labelled entries Condition met when protein stability index is 2 or higher, otherwise Condition not met.

| Query Sequence | Category |
| --- | --- |
| RDPFETNMCGYHSQDRYEFSSHIT | Condition met |
| RDPFECNMCGYHSQDRYWFSSHIT | Condition not met |
| RDPFECNMCGYHSQDRYEFLSHIT | Condition met |
| RDPFECNMCGYHSQDRYEFSCHIT | Condition met |
| RDPFECNMCGYHSQDRYEFSSHIS | Condition not met |
| RDPWECNMCGYHSQDRYEFSSHIT | Condition met |
| HDPFECNMCGYHSQDRYEFSSHIT | Condition met |
| RDPFECNMCGYHSQDRYENSSHIT | Condition met |
| RDPFECNMCGYHSHDRYEFSSHIT | Condition met |
| RDPFECNMCGYHSQDRYEFDSHIT | Condition met |
| RDPFECPMCGYHSQDRYEFSSHIT | Condition met |
| RDPFECNMCGYHSQDPYEFSSHIT | Condition met |
| RDPFECNMCGYHSQDRYEFSSHHT | Condition met |
| RDPFECNMCGYHSQDRYEFISHIT | Condition met |
| RDPFECEMCGYHSQDRYEFSSHIT | Condition met |
| RDPFECNMCGYHSQNRYEFSSHIT | Condition met |
| TDPFECNMCGYHSQDRYEFSSHIT | Condition met |
| RDPFECNMCEYHSQDRYEFSSHIT | Condition met |
| RDPFECNMCGYHSQDRYEFMSHIT | Condition met |
| RDPFECNMKGYHSQDRYEFSSHIT | Condition met |
| RDPCECNMCGYHSQDRYEFSSHIT | Condition met |
| RDPFECNMCGYHSQDFYEFSSHIT | Condition met |
| RDPFECNMCGYHSQQRYEFSSHIT | Condition met |
| RDPFECNMCGYHSQDRLEFSSHIT | Condition met |
| RDPFECNMCGYHSQDRYEFSSHIE | Condition met |
| RDPFECSMCGYHSQDRYEFSSHIT | Condition not met |
| RDPFECNMCGYHSQDRYECSSHIT | Condition met |
| RDPTECNMCGYHSQDRYEFSSHIT | Condition met |
| RDPFRCNMCGYHSQDRYEFSSHIT | Condition not met |
| RSPFECNMCGYHSQDRYEFSSHIT | Condition not met |
| RDIFECNMCGYHSQDRYEFSSHIT | Condition not met |
| RDPFECNMCGYHSQDRYSFSSHIT | Condition met |
| FDPFECNMCGYHSQDRYEFSSHIT | Condition not met |
